Data export: GI50 values recorded with MDA-MB-435.

Give its GI50 value. Item: CN(C)CCNc1nc2ccccc2c2[nH]c3ccccc3c12
420 nM

CCCCCCCCCCCCOC1C(CNCC2OC3OC(C)(C)OC3C2NC(=O)Nc2ccc(C(=O)OCC)cc2)OC2OC(C)(C)OC21 (centres undefined) ?
1900 nM

CC1=C2[C@@H](CC1)[C@]1(C)O[C@@](C(C)C)(C[C@H]1OC(=O)[C@H](C)O)[C@H]2OC(=O)/C=C/c1ccccc1 ?
15500 nM

CC[n+]1ccc2c(c1)C(=O)c1nccc3c1c-2nc1ccccc13 ?
2340 nM

====

Give measured TGI for each item. Keep answers brief.
Test system: ACHN renal
Experiment: NCI tumour cell line growth inhibition, 48 h

Give its TGI value. Item: CC(C)c1c(P(=O)(c2ccccc2)c2ccccc2)n(C)c2ccccc12
> 100 µM

S=C1NCCN1C1=Nc2ccccc2CO1 ?
> 100 µM

C/C(=N\NC(N)=S)c1ccc(C)cc1C ?
> 100 µM

N#Cc1nc(-c2ccc(F)cc2)oc1S(=O)(=O)N1CCOCC1 ?
3.12 µM

CCC1CCC2CCCC(C)N12 (stereo not drawn) ?
> 100 µM

N#Cc1c(OCCF)c2ccccc2n2c1nc1ccccc12 ?
> 100 µM

O=C(CCc1ccc(O)cc1)c1c(O)cc(O)cc1OC1OC(CO)C(O)C(O)C1O (stereo not drawn) ?
> 100 µM

COC(=O)C1CC(C=[N+](C)C)=C(SC)N1 (stereo not drawn) ?
> 100 µM

CCC[C@H](C)[C@H]1NC(=O)[C@@H](NC(=O)[C@@H](CC(C)C)N(C)C(=O)C2CCCN2C(=O)[C@H](C)O)[C@@H](C)OC(=O)[C@H](CC(C)C)N(C)C(=O)[C@@H]2CCCN2C(=O)[C@H](CC(C)C)NC(=O)[C@@H](C)C(=O)[C@H](C(C)C)OC(=O)C[C@@H]1O (stereo partly drawn) ?
0.0689 µM

O=C(Nc1ccccc1[N+](=O)[O-])c1ccccc1 ?
> 100 µM

CCOC(=O)c1c(SCCN2CCCC2)n(-c2ccccc2)c(=S)n(-c2ccccc2)c1=O ?
3.17 µM

COc1ccc(-n2cc(-c3ccc(OC)c(OC)c3)[nH]c2=S)cc1Cl ?
> 100 µM

COc1cc2c(c(O)c1C)C(=O)C(Cl)=CC2=O ?
13.9 µM
